system: NCI-H23 lung; assay: NCI tumour cell line growth inhibition, 48 h
Quantity: GI50

Compound: COc1cc(/C=C/c2cc(/C=C/c3ccc(O)c(OC)c3)n(C(=O)Nc3ccc(F)c(Cl)c3)n2)ccc1O
Quantity: GI50
Obs value: 0.147 µM
--
Compound: CC(C)(C)c1cc(C(C)(C)C)cc(S(=O)(=O)Nc2cc3ccccc3cc2C(=O)NCCN)c1
Quantity: GI50
Obs value: 1.76 µM
--
Compound: Cc1cc(C(=O)Nc2ncc(Cc3cccc(C(F)(F)F)c3)s2)c2ccccc2n1
Quantity: GI50
Obs value: 3.9 µM
--
Compound: CCCCC(O)(c1ccc(Cl)cc1)C(CN1CCOCC1)c1ccc(Cl)cc1 (stereo unspecified)
Quantity: GI50
Obs value: 10.6 µM
--
Compound: CCCCCCCC/C=C/CCCCCCCC(=O)OC[C@H]1O[C@@H](n2ccc(N)nc2=O)C(F)(F)[C@@H]1O
Quantity: GI50
Obs value: < 0.0143 µM
--
Compound: CN1CCN(CCCOc2ccc3nc(Nc4ccc(Cl)c(C(F)(F)F)c4)ccc3c2)CC1
Quantity: GI50
Obs value: 13.9 µM

* * *

test system: SF-539 CNS; test: NCI tumour cell line growth inhibition, 48 h
Recorded measurements of TGI, one per entry

Compound: N=C1C(c2nc3ccccc3s2)=C(O)CN1c1cc(C(F)(F)F)ccc1Cl
Target of assay: SF-539 CNS
Qual: =
TGI, µM: 52.9
--
Compound: O=C1/C(=C/c2ccc([N+](=O)[O-])cc2)C(=O)N(c2ccccc2)C1c1ccccc1 (stereo not given)
Target of assay: SF-539 CNS
Qual: >
TGI, µM: 10
--
Compound: O=P(Nc1ccc(Cl)cc1)(Oc1ccccc1)N(CCCl)CCCl (stereo not given)
Target of assay: SF-539 CNS
Qual: >
TGI, µM: 100
--
Compound: Cc1ccc([N+](=O)[O-])cc1S(=O)(=O)Nc1ccc(C2=NNC(c3ccccc3)C2)cc1 (stereo not given)
Target of assay: SF-539 CNS
Qual: =
TGI, µM: 89.2
--
Compound: CC1OC(OC2C(O[C@H]3CC[C@@]4(C)C(=CC[C@H]5[C@@H]6C[C@@H]7O[C@]8(CC[C@@H](CO)CO8)[C@@H](C)[C@@H]7[C@@]6(C)CC[C@@H]54)C3)OC(CO)C(O)C2OC2OC(CO)C(O)C(O)C2O)C(O)C(O)C1O (stereo not given in full)
Target of assay: SF-539 CNS
Qual: =
TGI, µM: 3.07

* * *

test system: SK-MEL-28 melanoma; assay: NCI tumour cell line growth inhibition, 48 h; in the data active = GI50 below about 0.43 µM; inactive = the rest
Labels: 1 (active), 0 (inactive)

Compound: CC(=O)[O-].CCN(CC)c1ccc(C=NCCN=Cc2ccc(N(CC)CC)cc2[O-])c([O-])c1.[Mn+3]
Qualitative label: 0
//
Compound: CN1C/C=C\CCOc2cccc(c2)-c2ccnc(n2)Nc2cccc(c2)C1
Qualitative label: 1
//
Compound: CCOC(=O)c1c(C)n(Cc2ccc(Cl)cc2Cl)c2c1c(CN(C)C)c(O)c1[nH]cnc12
Qualitative label: 0
//
Compound: Cc1cc(C(=O)Nc2ncc(Cc3cccc(C(F)(F)F)c3)s2)c2ccccc2n1
Qualitative label: 0
//
Compound: C=C1C(=O)O[C@H]2[C@H]1CC/C(COC(=O)C(=O)c1cn(Cc3ccccc3)c3ccccc13)=C\CC[C@@]1(C)O[C@@H]21
Qualitative label: 0
//
Compound: c1cc(CNC23CC4CC(CC(C4)C2)C3)cc(C[N+](Cc2cccc(CNC34CC5CC(CC(C5)C3)C4)c2)(Cc2cccc(CNC34CC5CC(CC(C5)C3)C4)c2)Cc2cccc(CNC34CC5CC(CC(C5)C3)C4)c2)c1 (centres undefined)
Qualitative label: 0
//
Compound: COc1cc(-c2ccc3c(c2)NC(=O)/C3=C\c2ccc[nH]2)ccc1O
Qualitative label: 0
//
Compound: O=C(NC1=CC(=O)c2ccccc2C1=O)c1ccccc1
Qualitative label: 0
//
Compound: Cc1cc(S(=O)(=O)Nc2nnc(-c3ccccc3)c(-c3ccccc3)n2)c(SCC(N)=O)cc1Cl
Qualitative label: 0

* * *

tested on: SW-620 colon; assay: NCI tumour cell line growth inhibition, 48 h; in the data active = GI50 below about 0.43 µM; inactive = the rest
Classes used: active, inactive

Molecule: Cc1cc(S(=O)(=O)Nc2nnc(-c3ccccc3)c(-c3ccccc3)n2)c(SCC(N)=O)cc1Cl
Target of assay: SW-620 colon
Qualitative label: inactive

Molecule: CCCCCCCC/C=C/CCCCCCCC(=O)OC[C@H]1O[C@@H](n2ccc(N)nc2=O)C(F)(F)[C@@H]1O
Target of assay: SW-620 colon
Qualitative label: active

Molecule: C[C@@]12CC=C3c4nc(Nc5cccc(O)c5)sc4CC[C@]3(C)[C@H]1CC[C@]1(C)C(=O)CC[C@@H]21
Target of assay: SW-620 colon
Qualitative label: inactive

Molecule: O=C1OC(C(O)CO)C(=O)C1=O (stereo unspecified)
Target of assay: SW-620 colon
Qualitative label: inactive

Molecule: CN(C)C(=O)c1cc2cnc(Nc3ccc(-c4csc5c(=S)cc(N6CCOCC6)oc45)cc3)nc2n1C1CCCC1
Target of assay: SW-620 colon
Qualitative label: inactive

Molecule: Cc1cc(C(=O)Nc2ncc(Cc3cccc(C(F)(F)F)c3)s2)c2ccccc2n1
Target of assay: SW-620 colon
Qualitative label: inactive

* * *

test system: DMS 273 small cell lung; assay: NCI tumour cell line growth inhibition, 48 h
Documented TGI across a set of molecules

Molecule: CCOc1ccccc1N=Nc1ccc2oc(=O)c(C(=O)Nc3cccc(C)c3)cc2c1
TGI: > 100 µM
--
Molecule: COc1cc(/C=C(\C#N)C(N)=O)cc(Br)c1O
TGI: > 100 µM
--
Molecule: O=C1CCC(c2ccc(Cl)cc2)=NN1c1nsc2ccccc12
TGI: 74.5 µM
--
Molecule: COC1(OC)C2(Cl)C(Cl)=C(Cl)C1(Cl)C1C=CC=CC12 (stereo unspecified)
TGI: > 100 µM
--
Molecule: COc1ccccc1CCc1cc(OC)c(OC)c(OC)c1
TGI: > 100 µM
--
Molecule: N#CC(NNC(=O)Cc1ccccc1)c1c(O)ccc2ccccc12 (stereo unspecified)
TGI: 19.1 µM
--
Molecule: O=P(Nc1ccc(Cl)cc1)(Oc1ccccc1)N(CCCl)CCCl (stereo unspecified)
TGI: > 100 µM
--
Molecule: CC(C)C(Nc1c2ccccc2nc2ccccc12)C(=O)O (stereo unspecified)
TGI: > 100 µM
--
Molecule: CC(C)(C)c1ccc2c(c1)S(=O)(=O)Nc1ccccc1NS(=O)(=O)c1cc(C(C)(C)C)ccc1OCCOCCOCCO2
TGI: > 100 µM
--
Molecule: CC1(C)C(=O)N(CCCCCCN2C(=O)C(C)(C)c3ccccc32)c2ccccc21
TGI: > 100 µM
--
Molecule: Cc1cccc(NC(=O)C(=O)C(C(=O)c2ccc3ccccc3c2)C2OC(=O)c3ccccc32)c1C (stereo unspecified)
TGI: 39 µM

* * *

tested on: SR leukemia; test: NCI tumour cell line growth inhibition, 48 h
Quantity: GI50

Compound: Cc1cc(C(=O)Nc2ncc(Cc3cccc(C(F)(F)F)c3)s2)c2ccccc2n1
Obs value: 2.02 µM
--
Compound: O=C1OC(C(O)CO)C(=O)C1=O (centres undefined)
Obs value: 3860 µM
--
Compound: CCOC(=O)[C@@H](N)CCC(=O)N[C@@H](CSCc1ccccc1)C(=O)N[C@@H](C(=O)OCC)c1ccccc1
Obs value: 9.97 µM
--
Compound: c1cc(CNC23CC4CC(CC(C4)C2)C3)cc(C[N+](Cc2cccc(CNC34CC5CC(CC(C5)C3)C4)c2)(Cc2cccc(CNC34CC5CC(CC(C5)C3)C4)c2)Cc2cccc(CNC34CC5CC(CC(C5)C3)C4)c2)c1 (centres undefined)
Obs value: 6.22 µM
--
Compound: O=C(N/N=C/c1ccc(Cl)cc1)c1ccc(C(F)(F)F)nc1Nc1cccc(C(F)(F)F)c1
Obs value: 0.879 µM
--
Compound: COC(=O)[C@H](C)NC(=O)NC(=O)NC(=O)CI
Obs value: 2.43 µM
--
Compound: CN1CCN(CCCOc2ccc3nc(Nc4ccc(Cl)c(C(F)(F)F)c4)ccc3c2)CC1
Obs value: 2.7 µM
--
Compound: CNc1ccc(C(=O)CC(O)CCC(C)C2OC(=O)CC(O)CC(=O)CC(O)CC(O)CC(O)CC(O)CC3(O)CC(O)C(C(=O)OC)C(CC(O[C@@H]4O[C@H](C)[C@@H](O)[C@H](N)[C@@H]4O)/C=C/C=C/C=C/C=C/C=C/C=C/C=C/C2C)O3)cc1 (some centres undefined)
Obs value: 2.33 µM
--
Compound: CCOC(=O)c1c(C)n(Cc2ccc(Cl)cc2Cl)c2c1c(CN(C)C)c(O)c1[nH]cnc12
Obs value: 0.557 µM

* * *

tested on: MALME-3M melanoma; assay: NCI tumour cell line growth inhibition, 48 h

Compound: NC(Cc1ccccc1)C(=O)N[C@H]1c2ccsc2/C(=N/O)[C@H]1O (stereo not given in full)
Qual: >
TGI (µM): 100
--
Compound: C=C1C(=O)O[C@H]2[C@H]1CC/C(COC(=O)C(=O)c1cn(Cc3ccccc3)c3ccccc13)=C\CC[C@@]1(C)O[C@@H]21
Qual: =
TGI (µM): 4.39
--
Compound: CN1CCN(CCCOc2ccc3nc(Nc4ccc(Cl)c(C(F)(F)F)c4)ccc3c2)CC1
Qual: =
TGI (µM): 28.4
--
Compound: Cc1ccc(C2=C(c3ccccc3)C(Br)(c3ccc(C)cc3)C(c3ccccc3)=C2c2ccc(C)cc2)cc1
Qual: >
TGI (µM): 100
--
Compound: O=C(NC1=CC(=O)c2ccccc2C1=O)c1ccccc1
Qual: =
TGI (µM): 3.27
